Numbers sourced from patent US20120251547A1.

target: T1, huIL-17RA-FLAG-polyHis (human, UniProt Q96F46 33-320); assay: binning; IL-17RA held by bead mAb R
T1 construct: also called IL-17RA-FLAG-pHis; wild-type IL-17RA
Item-by-item account of normalized MFI
Output spec: single numeric token, no unit.

INSERT INTO measurements (binder, quantityname, numericresult) VALUES
  ('AMH8/AML8 (antibody, IgG2, V domains shown, human mAb from IgG2 XenoMouse mice; also called AM-8; antibody C) VH: QVQLVQSGAEVKKPGASVKVSCKASGNTFTGYGISWVRQAPGQGLEWMGWISAYNGNTNYAQNLQGRVTMTTDTSTSTAYMELRSLRSDDTAVYYCARRDYDILTGYYNGFDPWGQGTLVTVSS VL: DIQMTQSPSSLSASVGDRVTITCRASQGIRNDLGWYQQKPGKAPKRLIYAASSLQSGVPSRFSGSGSGTEFTLTISSLQPEDFATYYCLQHKSYPLTFGGGTKVEIK', 'normalized MFI', 3950),
  ('AMH16/AML16 (antibody, IgG2, V domains shown, human mAb from IgG2 XenoMouse mice; also called AM-16; antibody O) VH: QVQLVQSGAEVKKPGASVKVSCKASGYTFTSYGISWVRQAPGQGLEWMGWISAYNGNTKYAQKLQGRVTMTTDTSTSTVYMELRSLRSDDTAVYYCARKQLVFDYWGQGTLVTVSS VL: EIVMTQSPATLSVSPGERATLSCRASQSISTSLAWYQQKPGQAPRLLIYGTSTRATGIPARFSGSGSGTEFTLTISSLQSEDFAVYFCQQYDIWPLTFGGGTKVEIK', 'normalized MFI', 76),
  ('AMH10/AML10 (antibody, IgG2, V domains shown, human mAb from IgG2 XenoMouse mice; also called AM-10; antibody F) VH: QVQLQESGPGLVKPSQTLSLTCTVSGGSISSGGYYWSWIRQHPGKGLEWIGYIYFSGSAYYNPSLKSRVAISVDTSKNQFSLKLSSVTAADTAVYYCAREYYDSSGYPDAFDIWGQGTMVTVSS VL: DIQMTQSPSSVSASVGDRVTITCRASQGIRSWLAWYQQKPGKAPKLLIFAASSLQSGVPSRFSGSGSGTEFTLTISSLQPEDFATYYCQQANNFPRTFGQGTKVEIK', 'normalized MFI', 1120);

# ---- query binder ----
Reported normalized MFI ( AMH21/AML21 (antibody, IgG2, V domains shown, human mAb from IgG2 XenoMouse mice; also called AM-21; antibody Q) VH: EVQLVESGGGSVQPGGSLRLSCAASGFTFSSYSMNWVRQAPGKGLEWVSIISSRSSIIHYADSVKGRFTISRDNAKNSLYLQMNSLRDEDTAVYYCARPKVGGGMDVWGQGTTVTVSS VL: DIQMTQSPSSLSASVGDRVTITCRASQGISNYLAWYQQKPGKFPELLIYAASTLQSGVPSRFSGSGSGTDFTLTISSLQPEDVATYYCQKYNRAPFTFGPGTKVDIK ) = 34
